system: MALME-3M melanoma; assay: NCI tumour cell line growth inhibition, 48 h
// TGI lookup, one value per entry

compound | system under test | TGI
CCOP(=O)(OCC)/C(C#N)=C/c1ccnc2ccccc12 | MALME-3M melanoma | > 100 µM
CC[C@@H]1/C=C/C=C/C[C@H](C)[C@@H](O)[C@](C)(O)C(=O)[C@H](C)[C@@H](O)[C@H](C)C(=O)[C@H](C)[C@@H](O)[C@H](C)/C=C/C(=O)O[C@H]2[C@@H](C)[C@@H](CC1)O[C@@]1(CC[C@@H](C)[C@@H](CC(C)O)O1)[C@@H]2C (stereo not given in full) | MALME-3M melanoma | 15.6 µM
Clc1nc(Cl)c2ncn(Cc3ccc(Cn4cnc5c(Cl)nc(Cl)nc54)cc3)c2n1 | MALME-3M melanoma | 29.3 µM
CN1C(=O)C2C=C3CCCCC3=CC2N(C)C1=O (stereo not given) | MALME-3M melanoma | > 100 µM
O=c1ccn(C2OC(CN(O)CCC3C(CO)OC(n4ccc(=O)[nH]c4=O)C3O)C(O)C2O)c(=O)[nH]1 (stereo not given) | MALME-3M melanoma | > 100 µM
O=C(Nc1ccn(CCI)c(=O)n1)c1ccccc1 | MALME-3M melanoma | > 100 µM
COc1ccccc1CNC(=O)[C@H](Cc1ccc(O)cn1)NC(C)=O | MALME-3M melanoma | > 100 µM
CC1OC(OC2C(Oc3cc(O)c4c(c3)O[C@H](c3ccc(O)cc3)CC4=O)OC(CO)C(O)C2O)C(O)C(O)C1O (stereo not given in full) | MALME-3M melanoma | > 100 µM
O=C1c2ccccc2C(=O)c2oc(Br)cc21 | MALME-3M melanoma | 0.274 µM
CCCCNC(=S)/N=C/c1c(O)c2ccccc2[nH]c1=O | MALME-3M melanoma | > 10 µM
OC(C/C=N/Nc1ccccc1)(C(F)(F)Cl)C(F)(F)Cl | MALME-3M melanoma | > 10 µM
Cc1cccc(C(C)(C)C)c1NC(=O)CC1Sc2ccccc2NC1=O (stereo not given) | MALME-3M melanoma | > 100 µM
COc1cc(Cl)cc(-c2nn(-c3cccc(NC(=O)Nc4ccc(Cl)c(C(F)(F)F)c4)c3)cc2-c2ccncc2)c1 | MALME-3M melanoma | 8.59 µM
COc1ccc2c(c1OC)C(=O)c1cnccc1C2=O | MALME-3M melanoma | > 100 µM
CC(=O)C1=CCC2c3[nH]c4ccccc4c3CCN2C1 (stereo not given) | MALME-3M melanoma | > 100 µM
O=C(NNC(=O)c1ccccc1O)c1ccc(O)cc1 | MALME-3M melanoma | > 100 µM
COc1cc(C(=O)Oc2c(C#N)sc3c2c(=O)n(-c2ccccc2)c(=S)n3-c2ccccc2)cc(OC)c1OC | MALME-3M melanoma | 28 µM
COC(=O)C1=CC2OC1(C)CCC2=O (stereo not given) | MALME-3M melanoma | > 100 µM
O=C(CCN1CCOCC1)C(=Cc1ccccc1)C(=O)CCN1CCOCC1 | MALME-3M melanoma | 4.64 µM
CCOC(=O)c1c(N2CCCC2)[nH]c(=O)c(C(c2cccs2)c2c(O)c(C(=O)OCC)c(N3CCCC3)[nH]c2=O)c1O | MALME-3M melanoma | > 100 µM
COC(=O)c1c(-c2ccccc2)c2sc3ccccc3n2c1N | MALME-3M melanoma | 68.1 µM
CC1=NN(C(=O)CC(=O)Nc2cccc(Cl)c2)C(=O)C1N=Nc1ccc(C(=O)O)cc1 (stereo not given) | MALME-3M melanoma | > 100 µM
CC(=O)c1sc(=N)n(-c2c(C)cccc2C)c1C | MALME-3M melanoma | > 100 µM
Cc1ccc(S(=O)(=O)c2c(N)n(CCN(C)C)c3nc4ccccc4nc23)cc1 | MALME-3M melanoma | > 100 µM
Cc1ccc(S(=O)(=O)NNC2Oc3cc4c(cc3C(c3ccccc3O)C2C)OCO4)cc1 (stereo not given) | MALME-3M melanoma | 25.9 µM
Cc1ccccc1N=NC(C(=O)c1ccccc1)C(=O)c1ccccc1 | MALME-3M melanoma | > 100 µM
COc1ccc(CCc2nccn2C)cc1OC | MALME-3M melanoma | > 100 µM
CCOC(=O)C1=C(Nc2ccc(Cl)c(Cl)c2)OC/C1=N\NS(=O)(=O)c1ccc(C)cc1 | MALME-3M melanoma | > 100 µM
c1ccc2cc3c(cc2c1)nc1ccccn13 | MALME-3M melanoma | > 100 µM
COc1cc2c3c(n(CCCN=[N+]=[N-])c(=O)c2cc1OC)-c1ccc(N(C)C)cc1C3=O | MALME-3M melanoma | > 100 µM
COc1ccc(-c2nn(-c3cccc(NC(=O)c4ccc(N5CCOCC5)c(C(F)(F)F)c4)c3)cc2-c2ccncc2)cc1Cl | MALME-3M melanoma | > 50 µM
CN(C)C(=S)/N=c1\ss/c(=N\S(=O)(=O)c2ccccc2)n1N(C)C | MALME-3M melanoma | > 100 µM
COc1ccc(NC2CC(C)N(C(=O)c3ccccc3)O2)cc1 (stereo not given) | MALME-3M melanoma | > 10 µM
Cc1cc(-c2nc3cccc(F)c3s2)ccc1N | MALME-3M melanoma | > 100 µM
Nc1n[nH]c(CCc2nc(N)n[nH]2)n1 | MALME-3M melanoma | > 100 µM
CC1=CC(=O)N(c2c(C)cccc2Cl)C(C)N1 (stereo not given) | MALME-3M melanoma | > 100 µM
CC(C)C(NCc1c(O)ccc2c(-c3ccccc3)cc(=O)oc12)C(=O)O (stereo not given) | MALME-3M melanoma | > 100 µM
C=C1[C@@H]([C@@]2(C)C=CC(=O)C(C)(C)[C@@H]2CC(=O)OC)CC[C@@]2(C)C(c3ccoc3)OC(=O)[C@H]3O[C@]132 (stereo not given in full) | MALME-3M melanoma | > 100 µM
CC1(C)O[C@@H](CBr)C[C@H](C[C@H]2C[C@@H](O)C[C@@H](CCOCc3ccccc3)O2)O1 | MALME-3M melanoma | 35.1 µM
CC(=O)ON(C(C)=O)c1ccc(-c2nc3ccccc3s2)cc1C | MALME-3M melanoma | > 100 µM

---

// log10(TGI) lookup, one value per entry
tested on: HS 578T breast; assay: NCI tumour cell line growth inhibition, 48 h
measurement kind: log10(TGI) (log10 of the value in µM)

compound | value observed
COc1cc(C(=O)Oc2c(C#N)sc3c2c(=O)n(-c2ccccc2)c(=S)n3-c2ccccc2)cc(OC)c1OC | 1.63
COc1ccc(CCNCCCC2c3ccccc3-c3ccccc32)cc1OC | 1.60
O=c1[nH]c2c(c(=O)[nH]1)SSC2 | 1.75
CC1(C)O[C@@H](CBr)C[C@H](C[C@H]2C[C@@H](O)C[C@@H](CCOCc3ccccc3)O2)O1 | 1.68
ClCc1ccc(Cn2cnc3c(Cl)nc(Cl)nc32)cc1 | 0.76
O=C1OC(OCC#CCOC2OC(=O)C(Cl)=C2Cl)C(Cl)=C1Cl (stereo not drawn) | 1.70
CCOP(=O)(OCC)/C(C#N)=C/c1ccnc2ccccc12 | 1.84
CNCCC=C1c2ccccc2CCc2ccccc21 | 1.71
O=C1NCCS(=O)(=O)/C1=C\C=C\c1cccc(C(F)(F)F)c1 | 1.49
CN(C)Cc1cc(C(C)(C)C)cc(C2CCCCC2)c1O | 1.53

---

// TGI lookup, one value per entry
tested on: UACC-257 melanoma; test: NCI tumour cell line growth inhibition, 48 h

molecule | system under test | TGI
CC(C)(C)OC(=O)N(CCCCNCc1ccc2ccccc2c1)CCCNCc1ccc2ccccc2c1 | UACC-257 melanoma | 3.42 µM
O=C1CC(c2ccc(Cl)cc2)Oc2ccccc21 (stereo not drawn) | UACC-257 melanoma | > 100 µM
CO[C@H]1CC(c2ccc[nH]2)=N[C@]12O[C@@H](C)C[C@@H]1CCCCCCCc3ccc([nH]3)[C@H]12 | UACC-257 melanoma | 7.63 µM
Cc1ccc(S(=O)(=O)NNC2Oc3cc4c(cc3C(c3ccccc3O)C2C)OCO4)cc1 (stereo not drawn) | UACC-257 melanoma | 23.3 µM
CCCNc1nc2ccccc2c2c1S(=O)(=O)c1ccc(Cl)cc1C2=O | UACC-257 melanoma | > 50 µM
COc1cc(C(=O)Oc2c(C#N)sc3c2c(=O)n(-c2ccccc2)c(=S)n3-c2ccccc2)cc(OC)c1OC | UACC-257 melanoma | > 100 µM
FC1=C2CCCCCC2SC1(F)F (stereo not drawn) | UACC-257 melanoma | > 100 µM
COC(=O)CCC(=O)NC1C2CC3CC(C2)CC1C3 (stereo not drawn) | UACC-257 melanoma | > 100 µM
COC(=O)C1=C(c2ccc3c(c2)OCO3)OC(c2cc(OC)c(OC)c(OC)c2)C1 (stereo not drawn) | UACC-257 melanoma | > 100 µM
CC(C)C(NC(=O)C(Cc1ccccc1)NC(=O)[C@H]1CCC[C@H]1NC(=O)C(N)Cc1ccc(O)cc1)C(N)=O (stereo partly drawn) | UACC-257 melanoma | > 100 µM
CC1OC(OC2C(Oc3cc(O)c4c(c3)O[C@H](c3ccc(O)cc3)CC4=O)OC(CO)C(O)C2O)C(O)C(O)C1O (stereo partly drawn) | UACC-257 melanoma | > 100 µM
CCN(CC)CCOc1ccc(C(=O)/C=C\c2ccc(Cl)cc2Cl)cc1 | UACC-257 melanoma | 15.2 µM
COc1ccc(C2=CC(c3ccc(OC)c(OC)c3)c3c(c4ccccc4oc3=O)O2)cc1OC (stereo not drawn) | UACC-257 melanoma | > 100 µM
COC(=O)C1=CC2OC1(C)CCC2=O (stereo not drawn) | UACC-257 melanoma | > 100 µM
COP(=O)(OC)/C(=C\c1cn(C(c2ccccc2)(c2ccccc2)c2ccccc2)cn1)NC(C)=O | UACC-257 melanoma | > 100 µM
O=C(N/N=C\C(F)(F)F)c1ccncc1 | UACC-257 melanoma | > 100 µM
CCCC[C@H]1CCN2C[C@@H](O)[C@@H](O)[C@H]2[C@@H]1O | UACC-257 melanoma | > 100 µM
COc1ccc2c(c1OC)C(=O)c1cnccc1C2=O | UACC-257 melanoma | > 100 µM
COC(=O)C1=C(C)N2CCOC2CC1c1ccccc1 (stereo not drawn) | UACC-257 melanoma | > 100 µM
O=c1[nH]n(Cc2ccccc2Cl)c2ccccc12 | UACC-257 melanoma | > 100 µM
O=C(/C=C1/Nc2ccc([N+](=O)[O-])cc2NC1O)c1cccc([N+](=O)[O-])c1 (stereo not drawn) | UACC-257 melanoma | > 100 µM
c1ccc2cc3c(cc2c1)nc1ccccn13 | UACC-257 melanoma | > 100 µM
CC(=O)O[C@@H](C1C[C@@H](C)[C@H]2[C@@](O)(O1)[C@H](O)[C@@]1(C)C3=CC[C@H]4C(C)(C)[C@@H](OC5OCC(O)C(O)C5O)CC[C@@]45C[C@@]35CC[C@]21C)C(C)(C)O (stereo partly drawn) | UACC-257 melanoma | 38.4 µM
CCOC(OC1=C(C#N)CCCC1)C(C)[Se]c1ccccc1 (stereo not drawn) | UACC-257 melanoma | > 100 µM
c1ccc(CC2(c3cc4ccccc4[nH]3)OCCO2)nc1 | UACC-257 melanoma | > 100 µM
Cc1ccc(S(=O)(=O)NCCCSCCSCCCN)cc1 | UACC-257 melanoma | > 100 µM
CSc1cccc(NC(=O)OC2CCCCCCCCCCC2)c1 | UACC-257 melanoma | 38.7 µM
CC(C)C(NCc1c(O)ccc2c(-c3ccccc3)cc(=O)oc12)C(=O)O (stereo not drawn) | UACC-257 melanoma | > 100 µM
CC1=CC(=O)N(c2c(C)cccc2Cl)C(C)N1 (stereo not drawn) | UACC-257 melanoma | > 100 µM
Cc1ccc(S(=O)(=O)c2c(N)n(CCN(C)C)c3nc4ccccc4nc23)cc1 | UACC-257 melanoma | > 100 µM
O=[N+]([O-])c1ccc(Cl)cc1C1SCc2nc3ccccc3n21 (stereo not drawn) | UACC-257 melanoma | > 100 µM
CN(C)CCN1C(=O)c2cccc3cccc(c23)C1=O | UACC-257 melanoma | > 25 µM
COc1cc2c(c(OC3OC(CO)C(O)C(O)C3O)c1)C(=O)CC(c1ccc(O)cc1)O2 (stereo not drawn) | UACC-257 melanoma | > 100 µM
C=CCN1CN(c2ccccc2)C2(CCN(CCCC3(c4ccc(F)cc4)OCCO3)CC2)C1=O | UACC-257 melanoma | 33.3 µM
C=CS(=O)(=O)CCN1CC1 | UACC-257 melanoma | > 10 µM
Cc1c(Sc2ccccc2)[n+](=O)c2cc(Cl)c(Cl)cc2n1[O-] | UACC-257 melanoma | 44.6 µM
C/C=C/[C@H](O[Si](C)(C)C(C)(C)C)[C@@H](O)/C=C/C(=O)OCC | UACC-257 melanoma | 40.8 µM
O=C(NO)c1ccc(O)c(O)c1 | UACC-257 melanoma | > 100 µM
Cn1cnc([N+](=O)[O-])c1Sc1ncn[nH]1 | UACC-257 melanoma | > 100 µM
O=C(Nc1ccc(I)cc1F)c1cc(Cl)ccc1O | UACC-257 melanoma | 3.99 µM
COc1ccc(Nc2cc(C)nc(N3CCN(c4ccnc5cc(Cl)ccc45)CC3)n2)cc1 | UACC-257 melanoma | > 100 µM
CCc1nc(N)nc(N)c1-c1ccc(Cl)c(N=CN(C)C)c1 | UACC-257 melanoma | > 100 µM
COc1ccccc1CNC(=O)[C@H](Cc1ccc(O)cn1)NC(C)=O | UACC-257 melanoma | > 100 µM
